Molecular target: T1, human GIP receptor (human, UniProt P48546 22-466)
T1 sequence (looked up): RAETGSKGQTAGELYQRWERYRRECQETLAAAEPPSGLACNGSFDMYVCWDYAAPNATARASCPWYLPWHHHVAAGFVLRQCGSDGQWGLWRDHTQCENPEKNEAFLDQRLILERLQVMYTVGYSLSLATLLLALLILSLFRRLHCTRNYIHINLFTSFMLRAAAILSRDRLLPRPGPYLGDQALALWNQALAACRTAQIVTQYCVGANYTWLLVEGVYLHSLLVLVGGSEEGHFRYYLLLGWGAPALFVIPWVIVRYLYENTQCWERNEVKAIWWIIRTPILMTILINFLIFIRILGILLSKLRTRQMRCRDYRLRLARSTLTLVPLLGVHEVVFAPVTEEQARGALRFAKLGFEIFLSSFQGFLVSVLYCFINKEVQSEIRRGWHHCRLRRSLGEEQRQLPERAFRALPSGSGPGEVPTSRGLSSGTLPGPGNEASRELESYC
Assay: cell-based or functional assay
Positions of bridges follow the written chain, without caps; N, C: chain ends. Non-standard residues stand in square brackets, D forms with d. No end group written: not given here. *: point of attachment. Acetyl(2-(4-imidazolyl)) = O=C(Cc1c[nH]cn1)*; Aib = CC(C)(N)C(=O)O
Decision: In vitro activity relative to native peptide (%), vs. GIP (cAMP EC50) compared against 0.9%; not below it gives 1.0, below it gives 0.0.

Confirm if In vitro activity relative to native peptide (%), vs. GIP (cAMP EC50) reported for the binder H[Aib]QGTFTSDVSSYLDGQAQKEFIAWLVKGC [trigonal agonist of SEQ ID NO: 2] is 0.9% or above.
0.0

Do the same for {Acetyl(2-(4-imidazolyl))}-[Aib]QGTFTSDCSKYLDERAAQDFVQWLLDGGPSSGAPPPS [trigonal agonist of SEQ ID NO: 63] please
0.0

Do the same for {Acetyl(2-(4-imidazolyl))}-[Aib]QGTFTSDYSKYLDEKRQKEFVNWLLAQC (bridge 15-19) [trigonal agonist of SEQ ID NO: 86] please
0.0

Do the same for Y[Aib]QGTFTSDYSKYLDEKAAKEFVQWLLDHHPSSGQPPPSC (bridge 16-20) [trigonal agonist of SEQ ID NO: 75] please
1.0

Do the same for H[Aib]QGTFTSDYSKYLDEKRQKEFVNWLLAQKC (bridge 16-20) [trigonal agonist of SEQ ID NO: 34] please
0.0

Do the same for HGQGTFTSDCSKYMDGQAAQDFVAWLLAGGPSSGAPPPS [trigonal agonist of SEQ ID NO: 45] please
0.0

Do the same for H[Aib]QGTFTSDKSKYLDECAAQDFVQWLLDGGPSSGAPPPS [trigonal agonist of SEQ ID NO: 41] please
0.0

Do the same for {Acetyl(2-(4-imidazolyl))}-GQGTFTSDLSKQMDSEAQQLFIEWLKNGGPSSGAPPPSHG [trigonal agonist of SEQ ID NO: 16] please
0.0

Do the same for H[Aib]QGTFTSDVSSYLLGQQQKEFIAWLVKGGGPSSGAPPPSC [trigonal agonist of SEQ ID NO: 5] please
0.0

Do the same for H[Aib]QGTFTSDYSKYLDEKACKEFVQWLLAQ (bridge 16-20) [trigonal agonist of SEQ ID NO: 31] please
1.0

Do the same for {Acetyl(2-(4-imidazolyl))}-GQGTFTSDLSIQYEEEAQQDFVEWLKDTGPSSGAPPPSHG [trigonal agonist of SEQ ID NO: 20] please
0.0
